Taken from paper PMC7782168.

# melting point listing for each entry below
Readout kind: melting point

Chemical string | Reported
COc1cc(OC)c2c(=O)c(OCC(=O)Nc3nnc(-c4ccccc4[N+](=O)[O-])o3)c(-c3ccc(OC)c(OC)c3)oc2c1 | 254 to 256 °C
COc1cc(OC)c2c(=O)c(OCC(=O)Nc3nnc(-c4ccc(OC(F)(F)F)cc4)o3)c(-c3ccc(OC)c(OC)c3)oc2c1 | 217 to 219 °C
COc1cc(OC)c2c(=O)c(OCC(=O)Nc3nnc(-c4cccc(Cl)c4)o3)c(-c3ccc(OC)c(OC)c3)oc2c1 | 220 to 222 °C
COc1cc(OC)c2c(=O)c(OCC(=O)Nc3nnc(-c4cccc(F)c4)o3)c(-c3cc(OC)c(OC)c(OC)c3)oc2c1 | 217 to 219 °C

====

# Target: telomerase (Homo sapiens, UniProt O14746)
# Construct: assayed for telomerase activity using MGC-803 cells extract; endogenous in cells; host or cells: MGC-803 cell extract
# Sequence (O14746 whole entry): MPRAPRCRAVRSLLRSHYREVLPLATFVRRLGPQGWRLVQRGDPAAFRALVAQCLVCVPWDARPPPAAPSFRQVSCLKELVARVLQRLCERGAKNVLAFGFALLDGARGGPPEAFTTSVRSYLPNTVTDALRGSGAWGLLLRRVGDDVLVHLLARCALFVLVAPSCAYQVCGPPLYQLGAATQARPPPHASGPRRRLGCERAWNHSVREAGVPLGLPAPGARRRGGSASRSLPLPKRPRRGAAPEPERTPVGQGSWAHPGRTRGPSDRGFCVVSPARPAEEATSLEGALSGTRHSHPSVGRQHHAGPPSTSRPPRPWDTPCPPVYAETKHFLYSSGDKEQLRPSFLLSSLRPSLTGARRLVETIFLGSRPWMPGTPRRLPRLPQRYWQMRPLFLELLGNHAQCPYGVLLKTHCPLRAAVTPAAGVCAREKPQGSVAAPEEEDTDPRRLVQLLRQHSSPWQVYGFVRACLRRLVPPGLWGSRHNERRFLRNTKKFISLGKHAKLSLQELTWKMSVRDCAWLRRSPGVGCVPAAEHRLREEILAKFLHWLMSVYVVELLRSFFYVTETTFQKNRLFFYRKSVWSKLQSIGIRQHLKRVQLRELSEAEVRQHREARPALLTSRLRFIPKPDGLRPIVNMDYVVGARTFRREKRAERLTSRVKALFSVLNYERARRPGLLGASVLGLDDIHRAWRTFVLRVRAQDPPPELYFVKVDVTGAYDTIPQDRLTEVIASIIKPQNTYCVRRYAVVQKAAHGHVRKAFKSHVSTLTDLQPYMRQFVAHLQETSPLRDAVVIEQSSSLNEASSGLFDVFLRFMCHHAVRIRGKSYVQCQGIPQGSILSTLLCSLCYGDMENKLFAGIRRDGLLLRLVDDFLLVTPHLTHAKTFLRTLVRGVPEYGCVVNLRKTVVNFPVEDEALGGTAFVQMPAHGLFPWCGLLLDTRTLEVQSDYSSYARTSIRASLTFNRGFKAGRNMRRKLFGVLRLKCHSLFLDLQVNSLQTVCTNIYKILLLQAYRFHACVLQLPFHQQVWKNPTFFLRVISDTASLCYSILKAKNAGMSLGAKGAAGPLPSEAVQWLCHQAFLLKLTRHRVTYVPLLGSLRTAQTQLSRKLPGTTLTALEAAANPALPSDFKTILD
# Sequence (O60832 2-514 partner limits assumed): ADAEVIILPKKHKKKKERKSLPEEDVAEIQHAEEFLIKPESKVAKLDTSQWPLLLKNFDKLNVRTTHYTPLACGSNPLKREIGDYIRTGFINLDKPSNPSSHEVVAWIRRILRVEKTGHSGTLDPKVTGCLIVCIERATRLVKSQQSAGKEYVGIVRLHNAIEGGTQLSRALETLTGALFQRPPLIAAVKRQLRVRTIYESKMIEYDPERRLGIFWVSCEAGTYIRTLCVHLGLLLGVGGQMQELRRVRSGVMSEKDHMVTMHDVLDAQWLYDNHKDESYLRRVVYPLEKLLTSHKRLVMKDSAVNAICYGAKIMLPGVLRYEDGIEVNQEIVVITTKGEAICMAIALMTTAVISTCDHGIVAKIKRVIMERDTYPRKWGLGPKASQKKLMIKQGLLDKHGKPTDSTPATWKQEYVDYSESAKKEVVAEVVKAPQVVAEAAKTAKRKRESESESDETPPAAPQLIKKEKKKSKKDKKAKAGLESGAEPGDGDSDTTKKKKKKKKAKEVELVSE
# Sequence (Q9NPE3 whole entry partner): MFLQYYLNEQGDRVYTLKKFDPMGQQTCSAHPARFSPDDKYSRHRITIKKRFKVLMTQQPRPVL
# Sequence (Q9NX24 whole entry partner): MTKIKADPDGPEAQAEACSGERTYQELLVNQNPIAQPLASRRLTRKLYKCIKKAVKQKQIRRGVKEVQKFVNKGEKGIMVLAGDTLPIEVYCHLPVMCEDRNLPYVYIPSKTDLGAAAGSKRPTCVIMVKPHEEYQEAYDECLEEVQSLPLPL
# Sequence (Q9NY12 whole entry partner): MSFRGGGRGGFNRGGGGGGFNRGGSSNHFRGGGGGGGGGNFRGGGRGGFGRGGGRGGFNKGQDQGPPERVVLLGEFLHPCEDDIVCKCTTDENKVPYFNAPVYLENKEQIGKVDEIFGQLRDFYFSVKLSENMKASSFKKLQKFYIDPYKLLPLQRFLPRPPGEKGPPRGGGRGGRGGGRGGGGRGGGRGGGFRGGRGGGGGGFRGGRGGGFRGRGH
# Assay summary: Telomerase activity assay using MGC-803 cells extract
# Type: biochemical
# Condition info: mean ± SD
pIC50: −log10 of the molar value.
# pIC50 listing for each entry below
Readout kind: pIC50

Chemical string | Target | Operator | Reported
COc1cc(OC)c2c(=O)c(OCC(=O)Nc3nnc(-c4ccc(C)cc4)o3)c(-c3cc(OC)c(OC)c(OC)c3)oc2c1 | telomerase (Homo sapiens, UniProt O14746) | = | 5.63
COc1cccc(-c2nnc(NC(=O)COc3c(-c4ccc(OC)c(OC)c4)oc4cc(OC)cc(OC)c4c3=O)o2)c1 | telomerase (Homo sapiens, UniProt O14746) | = | 5.61
COc1cc(OC)c2c(=O)c(OCC(=O)Nc3nnc(-c4ccccc4C)o3)c(-c3cc(OC)c(OC)c(OC)c3)oc2c1 | telomerase (Homo sapiens, UniProt O14746) | = | 4.60
COc1cc(OC)c2c(=O)c(OCC(=O)Nc3nnc(-c4ccccc4)o3)c(-c3cc(OC)c(OC)c(OC)c3)oc2c1 | telomerase (Homo sapiens, UniProt O14746) | = | 4.68
COc1cc(OC)c2c(=O)c(OCC(=O)Nc3nnc(-c4ccc(Br)cc4)o3)c(-c3ccc(OC)c(OC)c3)oc2c1 | telomerase (Homo sapiens, UniProt O14746) | = | 5.37
COc1cc(OC)c2c(=O)c(OCC(=O)Nc3nnc(-c4cccc(C)c4)o3)c(-c3ccc(OC)c(OC)c3)oc2c1 | telomerase (Homo sapiens, UniProt O14746) | < | 4.22
COc1cc(OC)c2c(=O)c(OCC(=O)Nc3nnc(-c4cccc([N+](=O)[O-])c4)o3)c(-c3cc(OC)c(OC)c(OC)c3)oc2c1 | telomerase (Homo sapiens, UniProt O14746) | = | 5.39
COc1cc(OC)c2c(=O)c(OCC(=O)Nc3nnc(-c4ccc(Br)cc4)o3)c(-c3cc(OC)c(OC)c(OC)c3)oc2c1 | telomerase (Homo sapiens, UniProt O14746) | = | 5.91
COc1cc(OC)c2c(=O)c(OCC(=O)Nc3nnc(-c4ccccc4Br)o3)c(-c3cc(OC)c(OC)c(OC)c3)oc2c1 | telomerase (Homo sapiens, UniProt O14746) | = | 4.68
COc1cc(OC)c2c(=O)c(OCC(=O)Nc3nnc(-c4ccccc4)o3)c(-c3ccc(OC)c(OC)c3)oc2c1 | telomerase (Homo sapiens, UniProt O14746) | < | 4.22
COc1cc(OC)c2c(=O)c(OCC(=O)Nc3nnc(/C=C/c4ccccc4)o3)c(-c3cc(OC)c(OC)c(OC)c3)oc2c1 | telomerase (Homo sapiens, UniProt O14746) | = | 6.36
COc1cc(OC)c2c(=O)c(OCC(=O)Nc3nnc(-c4ccco4)o3)c(-c3cc(OC)c(OC)c(OC)c3)oc2c1 | telomerase (Homo sapiens, UniProt O14746) | = | 5.56
COc1cc(OC)c2c(=O)c(OCC(=O)Nc3nnc(-c4ccccc4Br)o3)c(-c3ccc(OC)c(OC)c3)oc2c1 | telomerase (Homo sapiens, UniProt O14746) | < | 4.22
COc1cc(OC)c2c(=O)c(OCC(=O)Nc3nnc(-c4ccccc4C(F)(F)F)o3)c(-c3cc(OC)c(OC)c(OC)c3)oc2c1 | telomerase (Homo sapiens, UniProt O14746) | = | 5.97

====

# Target: telomerase (Homo sapiens)
# Construct: assayed for telomerase activity using MGC-803 cells extract; endogenous in cells
# Assay summary: Telomerase activity assay using MGC-803 cells extract
# Condition info: mean ± SD
Readout kind: IC50 (µM)

Chemical string | Target | Quantity unit | Reported
COc1cc(OC)c2c(=O)c(OCC(=O)Nc3nnc(-c4ccccc4Cl)o3)c(-c3ccc(OC)c(OC)c3)oc2c1 | telomerase (Homo sapiens) | µM | 24.3
COc1cc(OC)c2c(=O)c(OCC(=O)Nc3nnc(-c4ccccc4C(F)(F)F)o3)c(-c3ccc(OC)c(OC)c3)oc2c1 | telomerase (Homo sapiens) | µM | 2.79
COc1cc(OC)c2c(=O)c(OCC(=O)Nc3nnc(-c4ccc(C(F)(F)F)cc4)o3)c(-c3ccc(OC)c(OC)c3)oc2c1 | telomerase (Homo sapiens) | µM | 1.29
COc1cc(OC)c2c(=O)c(OCC(=O)Nc3nnc(-c4cccc(Cl)c4)o3)c(-c3cc(OC)c(OC)c(OC)c3)oc2c1 | telomerase (Homo sapiens) | µM | 7.35

====

# IC50 listing for each entry below
# System: MGC-803 (human gastric cancer cell)
# Assay summary: In vitro anticancer (antiproliferative) MTT assay, MGC-803
# Assay type: cell-based
# Condition info: Homo sapiens, MGC-803, mean ± SD of three experiments in triplicate

Compound | Operator | IC50 (µM)
COc1cc(OC)c2c(=O)c(OCC(=O)Nc3nnc(/C=C/c4ccccc4)o3)c(-c3ccc(OC)c(OC)c3)oc2c1 | > | 100
COc1cc(OC)c2c(=O)c(OCC(=O)Nc3nnc(-c4ccc(OC)c(OC)c4)o3)c(-c3ccc(OC)c(OC)c3)oc2c1 | > | 100
COc1cccc2c1C(=O)c1c(O)c3c(c(O)c1C2=O)C[C@@](O)(C(=O)CO)C[C@@H]3O[C@H]1C[C@H](N)[C@H](O)[C@H](C)O1 [ADM, Adriamycin, reference compound] | = | 0.42
COc1cc(OC)c2c(=O)c(OCC(=O)Nc3nnc(-c4ccc(C(F)(F)F)cc4)o3)c(-c3cc(OC)c(OC)c(OC)c3)oc2c1 | > | 100
COc1cc(OC)c2c(=O)c(OCC(=O)Nc3nnc(-c4ccc(Cl)cc4)o3)c(-c3cc(OC)c(OC)c(OC)c3)oc2c1 | = | 15.2
COc1cc(OC)c2c(=O)c(OCC(=O)Nc3nnc(-c4cccc(OC(F)(F)F)c4)o3)c(-c3cc(OC)c(OC)c(OC)c3)oc2c1 | = | 6.29
COc1cc(OC)c2c(=O)c(OCC(=O)Nc3nnc(-c4ccc(F)cc4)o3)c(-c3cc(OC)c(OC)c(OC)c3)oc2c1 | = | 17.3
COc1cc(OC)c2c(=O)c(OCC(=O)Nc3nnc(-c4ccc(OC)c(OC)c4)o3)c(-c3cc(OC)c(OC)c(OC)c3)oc2c1 | > | 100
COc1cc(OC)c2c(=O)c(OCC(=O)Nc3nnc(/C=C/c4ccccc4)o3)c(-c3cc(OC)c(OC)c(OC)c3)oc2c1 | = | 8.76

====

# pIC50 listing for each entry below
# Target: telomerase (Homo sapiens)
# Construct: assayed for telomerase activity using MGC-803 cells extract; endogenous in cells
# Assay summary: Telomerase activity assay using MGC-803 cells extract
# Condition info: mean ± SD
pIC50: −log10 of the molar value.

Chemical string | Operator | pIC50
COc1cc(OC)c2c(=O)c(OCC(=O)Nc3nnc(-c4ccccc4Cl)o3)c(-c3cc(OC)c(OC)c(OC)c3)oc2c1 | = | 4.90
COc1cc(OC)c2c(=O)c(OCC(=O)Nc3nnc(-c4cccs4)o3)c(-c3cc(OC)c(OC)c(OC)c3)oc2c1 | = | 5.65
COc1cc(OC)c2c(=O)c(OCC(=O)Nc3nnc(-c4cccc(Cl)c4)o3)c(-c3ccc(OC)c(OC)c3)oc2c1 | = | 4.81
COc1cc(OC)c2c(=O)c(OCC(=O)Nc3nnc(-c4ccc(Cl)c(Cl)c4)o3)c(-c3ccc(OC)c(OC)c3)oc2c1 | < | 4.22

====

# Target: telomerase (Homo sapiens)
# Construct: assayed for telomerase activity using MGC-803 cells extract; endogenous in cells
# Assay summary: Telomerase activity assay using MGC-803 cells extract
# Condition info: mean ± SD
pIC50: −log10 of the molar value.

Chemical string | pIC50
COc1cc(OC)c2c(=O)c(OCC(=O)Nc3nnc(-c4cccc(C)c4)o3)c(-c3cc(OC)c(OC)c(OC)c3)oc2c1 | 4.81
COc1cc(OC)cc(-c2nnc(NC(=O)COc3c(-c4cc(OC)c(OC)c(OC)c4)oc4cc(OC)cc(OC)c4c3=O)o2)c1 | 5.97
COc1cc(OC)c2c(=O)c(OCC(=O)Nc3nnc(-c4cccc(OC(F)(F)F)c4)o3)c(-c3cc(OC)c(OC)c(OC)c3)oc2c1 | 6.04
COc1cc(OC)c2c(=O)c(OCC(=O)Nc3nnc(-c4ccc5c(c4)OCCO5)o3)c(-c3ccc(OC)c(OC)c3)oc2c1 | 5.53
COc1cc(OC)c2c(=O)c(OCC(=O)Nc3nnc(-c4ccc(Cl)cc4)o3)c(-c3ccc(OC)c(OC)c3)oc2c1 | 5.37
COc1cc(OC)c2c(=O)c(OCC(=O)Nc3nnc(-c4ccccc4C)o3)c(-c3ccc(OC)c(OC)c3)oc2c1 | 5.09
COc1cc(OC)c2c(=O)c(OCC(=O)Nc3nnc(-c4cccc(Br)c4)o3)c(-c3cc(OC)c(OC)c(OC)c3)oc2c1 | 5.70
